# target: T1, human CD64 (recombinant) (human, UniProt P12314 16-288)
# T1 chain: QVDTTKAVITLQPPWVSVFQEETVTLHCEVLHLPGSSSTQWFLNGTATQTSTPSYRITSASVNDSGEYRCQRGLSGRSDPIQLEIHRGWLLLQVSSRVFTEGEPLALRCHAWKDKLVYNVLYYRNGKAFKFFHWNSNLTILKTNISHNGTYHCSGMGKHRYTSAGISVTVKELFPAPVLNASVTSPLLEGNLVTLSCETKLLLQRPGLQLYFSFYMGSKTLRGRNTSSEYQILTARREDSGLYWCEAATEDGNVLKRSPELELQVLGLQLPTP
# experiment_summary: BLI; 200 nM CD64
quantity_kind: Kd (nM)
Numeric only. Scale: nM

Data request: Specify reported Kd for the binder shown: XGYVNSCLLLPNLLGCGDD (not fully specified; X1 is K, Ac-K(azido), or absent (azide clicked to DBCO-peg4-biotin); disulfide bond between C7 and C16; C-terminal amidation present or absent) [CP-33(N-term "Y" insertion mutant)-linker-biotin conjugate]
Data returned: 20.8

All values here come from patent US20240083971A1.
